Measured Ki, listed per entry.
biological target: UniProt P23975; assay: Displacement of [3H]nisoxetine from human recombinant NET expressed in BacMam virus-transduced cells by scintillation proximity assay; format: cell-based
Property Label: Ki (nM)

molecule="OC[C@@H]1[C@@H]2CNC[C@]12c1ccc(Cl)c(Cl)c1 (racemic)" reported_result=182
molecule="Clc1ccc([C@]23CNC[C@H]2[C@@H]3COC2CCC2)cc1Cl (relative stereo)" reported_result=0.501
molecule="CCOCC[C@H]1[C@@H]2CNC[C@]12c1ccc(Cl)c(Cl)c1 (racemic)" reported_result=3.98
molecule=CCOC[C@H]1[C@@H]2CNC[C@@]21c1ccc(Cl)c(Cl)c1 reported_result=0.501
molecule="COC[C@H]1[C@@H]2CNC[C@@]21c1ccc(Cl)c(Cl)c1 (stereo in doubt)" reported_result=3.16
molecule="Cc1cnc([C@H]2[C@@H]3CNC[C@@]32c2ccc(Cl)c(Cl)c2)o1 (racemic)" reported_result=20
molecule="CSC[C@H]1[C@@H]2CNC[C@@]21c1ccc(Cl)c(Cl)c1 (relative stereo)" reported_result=1.58
molecule="OC[C@H]1[C@@H]2CNC[C@]12c1ccc(Cl)c(Cl)c1 (racemic)" reported_result=28.8
molecule="CC(C)OC[C@@H]1[C@H]2CNC[C@]21c1ccc(Cl)c(Cl)c1 (stereo in doubt)" reported_result=0.251

###

molecular target: UniProtKB P08912
Sequence (P08912 whole entry): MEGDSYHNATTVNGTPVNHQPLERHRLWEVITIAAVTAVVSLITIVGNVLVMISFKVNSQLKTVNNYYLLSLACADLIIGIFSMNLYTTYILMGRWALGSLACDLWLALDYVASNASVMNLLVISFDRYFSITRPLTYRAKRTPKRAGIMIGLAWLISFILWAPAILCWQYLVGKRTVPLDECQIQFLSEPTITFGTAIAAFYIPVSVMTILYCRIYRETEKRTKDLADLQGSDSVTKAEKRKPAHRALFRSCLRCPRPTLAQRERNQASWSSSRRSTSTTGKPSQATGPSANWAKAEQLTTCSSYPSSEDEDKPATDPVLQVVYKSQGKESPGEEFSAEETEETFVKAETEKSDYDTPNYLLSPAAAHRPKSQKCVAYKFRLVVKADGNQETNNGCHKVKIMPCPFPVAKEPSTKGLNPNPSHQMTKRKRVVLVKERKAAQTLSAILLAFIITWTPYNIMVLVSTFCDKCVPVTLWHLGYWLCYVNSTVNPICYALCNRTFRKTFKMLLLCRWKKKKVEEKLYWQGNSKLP
pKi: −log10 of the molar value.
Property Label: pKi

smiles_code=CCOC[C@H]1[C@@H]2CNC[C@@]21c1ccc(Cl)c(Cl)c1 property_label=pKi reported_result=7.00

###

assay: Volume of distribution in rat; format: ADME, organism-based; settings: in vivo
Property Label: Vd

compound=FC(F)(F)COC[C@H]1[C@@H]2CNC[C@@]21c1ccc(Cl)c(Cl)c1 property_label=Vd reported_result="3.2 L/kg"
compound="FC(F)(F)COC[C@@H]1[C@H]2CNC[C@]21c1ccc(Cl)c(Cl)c1 (stereo in doubt)" property_label=Vd reported_result="3.2 L/kg"
compound="Clc1ccc([C@@]23CNC[C@@H]2[C@H]3COCC2CC2)cc1Cl (stereo in doubt)" property_label=Vd reported_result="5.2 L/kg"
compound=CCOC[C@H]1[C@@H]2CNC[C@@]21c1ccc(Cl)c(Cl)c1 property_label=Vd reported_result="1.4 L/kg"
compound="COC[C@H]1[C@@H]2CNC[C@@]21c1ccc(Cl)c(Cl)c1 (relative stereo)" property_label=Vd reported_result="2.9 L/kg"

###

biological target: 5-hydroxytryptamine receptor 2A (Homo sapiens)
Sequence (P28223 whole entry): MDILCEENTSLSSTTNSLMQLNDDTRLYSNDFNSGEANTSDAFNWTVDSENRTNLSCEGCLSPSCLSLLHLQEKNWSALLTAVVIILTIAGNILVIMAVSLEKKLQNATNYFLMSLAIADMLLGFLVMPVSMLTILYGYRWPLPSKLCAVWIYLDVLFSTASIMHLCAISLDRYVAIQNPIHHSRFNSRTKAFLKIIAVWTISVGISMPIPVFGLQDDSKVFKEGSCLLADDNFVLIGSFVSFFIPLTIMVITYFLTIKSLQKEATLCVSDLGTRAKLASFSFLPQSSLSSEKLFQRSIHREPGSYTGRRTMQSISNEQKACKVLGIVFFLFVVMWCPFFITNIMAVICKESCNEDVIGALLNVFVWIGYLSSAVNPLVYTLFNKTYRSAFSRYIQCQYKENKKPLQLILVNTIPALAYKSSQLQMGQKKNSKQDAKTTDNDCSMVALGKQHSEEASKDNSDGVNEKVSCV
Property Label: Ki

smiles_code=CCOC[C@H]1[C@@H]2CNC[C@@]21c1ccc(Cl)c(Cl)c1 property_label=Ki reported_result="158 nM"

###

Below, each entry is listed alongside its reported pKi.
target: Sodium-dependent dopamine transporter (Homo sapiens, UniProt Q01959); assay: Displacement of [3H]WIN-35428 from human recombinant DAT expressed in BacMam virus-transduced cells by scintillation proximity assay; format: cell-based
Sequence (Q01959 whole entry): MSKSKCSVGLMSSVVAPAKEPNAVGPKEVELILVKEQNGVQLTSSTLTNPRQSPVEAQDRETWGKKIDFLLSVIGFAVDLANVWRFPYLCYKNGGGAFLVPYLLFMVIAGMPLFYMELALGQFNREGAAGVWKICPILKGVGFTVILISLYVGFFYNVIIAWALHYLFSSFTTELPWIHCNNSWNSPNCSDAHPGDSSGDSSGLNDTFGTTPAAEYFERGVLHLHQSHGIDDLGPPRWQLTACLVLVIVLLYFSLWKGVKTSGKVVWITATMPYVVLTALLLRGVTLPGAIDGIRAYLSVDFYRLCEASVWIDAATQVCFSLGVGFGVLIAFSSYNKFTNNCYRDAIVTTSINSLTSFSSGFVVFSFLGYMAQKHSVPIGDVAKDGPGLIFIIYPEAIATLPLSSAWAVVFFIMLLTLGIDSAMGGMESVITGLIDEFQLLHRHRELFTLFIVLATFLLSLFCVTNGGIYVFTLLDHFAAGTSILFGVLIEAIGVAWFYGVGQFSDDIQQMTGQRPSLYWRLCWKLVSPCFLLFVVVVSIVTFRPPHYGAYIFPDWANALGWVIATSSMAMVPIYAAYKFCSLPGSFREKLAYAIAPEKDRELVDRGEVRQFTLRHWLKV
pKi: −log10 of the molar value.
Property Label: pKi

molecule="CCCOC[C@H]1[C@@H]2CNC[C@@]21c1ccc(Cl)c(Cl)c1 (stereo in doubt)" reported_result=7.70
molecule=Clc1ccc([C@@]2(COC3CCC3)[C@@H]3CNC[C@@H]32)cc1Cl reported_result=8.20
molecule="Cc1cnc([C@H]2[C@@H]3CNC[C@@]32c2ccc(Cl)c(Cl)c2)o1 (racemic)" reported_result=6.90
molecule="CC(C)OC[C@@H]1[C@H]2CNC[C@]21c1ccc(Cl)c(Cl)c1 (stereo in doubt)" reported_result=8.30
molecule="CCOC[C@H]1[C@@H]2CN(C)C[C@]12c1ccc(Cl)c(Cl)c1 (relative stereo)" reported_result=7.40
molecule="COC[C@@H]1[C@@H]2CNC[C@]12c1ccc(Cl)c(Cl)c1 (racemic)" reported_result=6.18
molecule="CCC[C@H]1[C@@H]2CNC[C@]12c1ccc(Cl)c(Cl)c1 (racemic)" reported_result=7.60
molecule=Clc1ccc([C@@]2(CCOC3CCC3)[C@@H]3CNC[C@@H]32)cc1Cl reported_result=8.20
molecule="Clc1ccc([C@]23CNC[C@H]2[C@@H]3COC2CCC2)cc1Cl (relative stereo)" reported_result=8.40
molecule="Cc1csc(C[C@@H]2[C@H]3CNC[C@]32c2ccc(Cl)c(Cl)c2)n1 (stereo in doubt)" reported_result=7.30
molecule="CCC(C)OCC[C@]1(c2ccc(Cl)c(Cl)c2)[C@@H]2CNC[C@@H]21 (mixture of isomers)" reported_result=8.30
molecule="CCC(C)OC[C@]1(c2ccc(Cl)c(Cl)c2)[C@@H]2CNC[C@@H]21 (mixture of isomers)" reported_result=8.10
molecule="Clc1ccc([C@]23CNC[C@H]2[C@@H]3COCC2CC2)cc1Cl (relative stereo)" reported_result=6.70
molecule="COC[C@H]1[C@@H]2CNC[C@@]21c1ccc(Cl)c(Cl)c1 (relative stereo)" reported_result=7.25
molecule="COCC[C@H]1[C@]2(C)CNC[C@]12c1ccc(Cl)c(Cl)c1 (racemic)" reported_result=7.20
molecule="Clc1ccc([C@]23CNC[C@H]2[C@H]3COCC2CC2)cc1Cl (racemic)" reported_result=6.30
molecule="COCC[C@H]1[C@]2(C)CNC[C@]12c1ccc(Cl)c(Cl)c1 (relative stereo)" reported_result=7.30
molecule="CCOCC[C@H]1[C@@H]2CNC[C@]12c1ccc(Cl)c(Cl)c1 (racemic)" reported_result=7.10

###

target: Sodium-dependent dopamine transporter (Homo sapiens); assay: Displacement of [3H]WIN-35428 from human recombinant DAT expressed in BacMam virus-transduced cells by scintillation proximity assay; format: cell-based
Ki: recorded values
Property Label: Ki

compound="COC[C@H]1[C@@H]2CNC[C@@]21c1ccc2ccccc2c1 (relative stereo)" reported_result="398 nM"
compound="Fc1ccc(OC[C@H]2[C@@H]3CNC[C@@]32c2ccc(Cl)c(Cl)c2)cc1 (racemic)" reported_result="79.4 nM"
compound=CCOCC[C@]1(c2ccc(Cl)c(Cl)c2)[C@@H]2CNC[C@@H]21 reported_result="15.8 nM"
compound="CCCOC[C@H]1[C@@H]2CNC[C@@]21c1ccc(Cl)c(Cl)c1 (relative stereo)" reported_result="251 nM"
compound="OC[C@H]1[C@@H]2CNC[C@]12c1ccc(Cl)c(Cl)c1 (racemic)" reported_result="457 nM"
compound="OCC[C@H]1[C@@H]2CNC[C@]12c1ccc(Cl)c(Cl)c1 (racemic)" reported_result="79.4 nM"
compound="COC[C@H]1[C@@H]2CNC[C@@]21c1ccc(Cl)c(Cl)c1 (stereo in doubt)" reported_result="110 nM"
compound="Cc1csc(C[C@H]2[C@@H]3CNC[C@@]32c2ccc(Cl)c(Cl)c2)n1 (relative stereo)" reported_result="20 nM"
compound="Clc1ccc([C@@]23CNC[C@@H]2[C@H]3COC2CCC2)cc1Cl (stereo in doubt)" reported_result="251 nM"
compound="CC(C)OC[C@H]1[C@@H]2CNC[C@@]21c1ccc(Cl)c(Cl)c1 (stereo in doubt)" reported_result="7.94 nM"

###

Let's look at some compounds and their measured log10(Ki).
target: Sodium-dependent noradrenaline transporter (Homo sapiens, UniProt P23975); assay: Displacement of [3H]nisoxetine from human recombinant NET expressed in BacMam virus-transduced cells by scintillation proximity assay; type: cell-based
Sequence (P23975 whole entry): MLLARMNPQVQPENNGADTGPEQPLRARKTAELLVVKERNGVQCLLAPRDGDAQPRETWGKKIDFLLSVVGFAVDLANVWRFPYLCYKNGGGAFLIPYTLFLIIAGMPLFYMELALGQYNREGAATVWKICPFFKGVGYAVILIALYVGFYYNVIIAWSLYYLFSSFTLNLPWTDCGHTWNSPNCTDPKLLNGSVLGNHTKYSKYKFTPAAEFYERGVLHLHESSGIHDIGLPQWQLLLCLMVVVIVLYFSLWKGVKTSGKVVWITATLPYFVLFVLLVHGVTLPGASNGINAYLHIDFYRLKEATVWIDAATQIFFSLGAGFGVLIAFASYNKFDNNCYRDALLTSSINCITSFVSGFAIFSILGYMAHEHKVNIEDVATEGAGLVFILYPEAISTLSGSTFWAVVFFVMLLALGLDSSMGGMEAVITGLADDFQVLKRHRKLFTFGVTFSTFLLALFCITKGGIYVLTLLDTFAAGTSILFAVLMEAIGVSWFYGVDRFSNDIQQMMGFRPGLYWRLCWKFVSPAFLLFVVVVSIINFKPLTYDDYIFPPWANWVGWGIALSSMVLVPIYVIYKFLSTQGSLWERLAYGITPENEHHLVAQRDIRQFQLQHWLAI
Property Label: log10(Ki) (log10 of the value in nM)

compound="Clc1ccc([C@@]23CNC[C@@H]2[C@H]3COCC2CC2)cc1Cl (stereo in doubt)" experimental_target="Sodium-dependent noradrenaline transporter (Homo sapiens, UniProt P23975)" property_label=log10(Ki) reported_result=-0.20
compound="Fc1ccc(OC[C@H]2[C@@H]3CNC[C@@]32c2ccc(Cl)c(Cl)c2)cc1 (racemic)" experimental_target="Sodium-dependent noradrenaline transporter (Homo sapiens, UniProt P23975)" property_label=log10(Ki) reported_result=1.60
compound="CC(C)OC[C@H]1[C@@H]2CNC[C@@]21c1ccc(Cl)c(Cl)c1 (relative stereo)" experimental_target="Sodium-dependent noradrenaline transporter (Homo sapiens, UniProt P23975)" property_label=log10(Ki) reported_result=2.30
compound="COCC[C@H]1[C@]2(C)CNC[C@]12c1ccc(Cl)c(Cl)c1 (relative stereo)" experimental_target="Sodium-dependent noradrenaline transporter (Homo sapiens, UniProt P23975)" property_label=log10(Ki) reported_result=0.00
compound="Clc1ccc([C@]23CNC[C@H]2[C@H]3COCC2CC2)cc1Cl (racemic)" experimental_target="Sodium-dependent noradrenaline transporter (Homo sapiens, UniProt P23975)" property_label=log10(Ki) reported_result=2.10
compound="Cc1csc(C[C@H]2[C@@H]3CNC[C@@]32c2ccc(Cl)c(Cl)c2)n1 (relative stereo)" experimental_target="Sodium-dependent noradrenaline transporter (Homo sapiens, UniProt P23975)" property_label=log10(Ki) reported_result=-0.90
compound="COC[C@H]1[C@@H]2CNC[C@@]21c1ccc2ccccc2c1 (relative stereo)" experimental_target="Sodium-dependent noradrenaline transporter (Homo sapiens, UniProt P23975)" property_label=log10(Ki) reported_result=2.50
compound="CSC[C@H]1[C@@H]2CNC[C@@]21c1ccc(Cl)c(Cl)c1 (stereo in doubt)" experimental_target="Sodium-dependent noradrenaline transporter (Homo sapiens, UniProt P23975)" property_label=log10(Ki) reported_result=0.70
compound="Clc1ccc([C@]23CNC[C@H]2[C@@H]3COC2CCCC2)cc1Cl (relative stereo)" experimental_target="Sodium-dependent noradrenaline transporter (Homo sapiens, UniProt P23975)" property_label=log10(Ki) reported_result=-0.80
compound="CCCOC[C@H]1[C@@H]2CNC[C@@]21c1ccc(Cl)c(Cl)c1 (relative stereo)" experimental_target="Sodium-dependent noradrenaline transporter (Homo sapiens, UniProt P23975)" property_label=log10(Ki) reported_result=1.50
compound="CCCOC[C@H]1[C@@H]2CNC[C@@]21c1ccc(Cl)c(Cl)c1 (stereo in doubt)" experimental_target="Sodium-dependent noradrenaline transporter (Homo sapiens, UniProt P23975)" property_label=log10(Ki) reported_result=-0.30
compound="OCC[C@H]1[C@@H]2CNC[C@]12c1ccc(Cl)c(Cl)c1 (racemic)" experimental_target="Sodium-dependent noradrenaline transporter (Homo sapiens, UniProt P23975)" property_label=log10(Ki) reported_result=0.90
compound="CCC(C)OCC[C@]1(c2ccc(Cl)c(Cl)c2)[C@@H]2CNC[C@@H]21 (mixture of isomers)" experimental_target="Sodium-dependent noradrenaline transporter (Homo sapiens, UniProt P23975)" property_label=log10(Ki) reported_result=0.60
compound=Clc1ccc([C@@]2(CCOC3CCC3)[C@@H]3CNC[C@@H]32)cc1Cl experimental_target="Sodium-dependent noradrenaline transporter (Homo sapiens, UniProt P23975)" property_label=log10(Ki) reported_result=0.60
compound="Clc1ccc([C@]23CNC[C@H]2[C@@H]3COC2CCCC2)cc1Cl (stereo in doubt)" experimental_target="Sodium-dependent noradrenaline transporter (Homo sapiens, UniProt P23975)" property_label=log10(Ki) reported_result=-0.10
compound=Clc1ccc([C@@]2(COCC3CC3)[C@@H]3CNC[C@@H]32)cc1Cl experimental_target="Sodium-dependent noradrenaline transporter (Homo sapiens, UniProt P23975)" property_label=log10(Ki) reported_result=0.90
compound="Cc1csc(C[C@@H]2[C@H]3CNC[C@]32c2ccc(Cl)c(Cl)c2)n1 (stereo in doubt)" experimental_target="Sodium-dependent noradrenaline transporter (Homo sapiens, UniProt P23975)" property_label=log10(Ki) reported_result=1.90
